Tested on: MCF7
assay_comment: Antiproliferative activity against human MCF7 cells after 48 hrs by MTT assay
Format: functional, cell-based
recorded_conditions: MCF7, 48 h
Can you tell me IC50 for the items I'm about to list?
Expressed in µM, but write only the number.

Entry under test: CCn1c(C(=O)NC(C)CO)ccc1C(CC)(CC)c1ccc(OCCC(O)(CC)CC)c(C)c1 (stereo not drawn) . Its IC50 was 12.6

Entry under test: CCC(C)C(NC(=O)c1ccc(C(CC)(CC)c2ccc(OCCC(O)(CC)CC)c(C)c2)n1CC)C(=O)O (stereo not drawn) . Its IC50 was 11.3

Entry under test: CCn1c(C(=O)NC(CC(=O)O)C(=O)OC)ccc1C(CC)(CC)c1ccc(OCCC(O)(CC)CC)c(C)c1 (stereo not drawn) . Its IC50 was 10.2

Reference source for all entries: ChEMBL document CHEMBL4033800
